Where do these numbers come from? They come from ChEMBL document CHEMBL1649083.

target: Quinolone resistance protein NorA (Staphylococcus aureus)
Sequence (whole entry): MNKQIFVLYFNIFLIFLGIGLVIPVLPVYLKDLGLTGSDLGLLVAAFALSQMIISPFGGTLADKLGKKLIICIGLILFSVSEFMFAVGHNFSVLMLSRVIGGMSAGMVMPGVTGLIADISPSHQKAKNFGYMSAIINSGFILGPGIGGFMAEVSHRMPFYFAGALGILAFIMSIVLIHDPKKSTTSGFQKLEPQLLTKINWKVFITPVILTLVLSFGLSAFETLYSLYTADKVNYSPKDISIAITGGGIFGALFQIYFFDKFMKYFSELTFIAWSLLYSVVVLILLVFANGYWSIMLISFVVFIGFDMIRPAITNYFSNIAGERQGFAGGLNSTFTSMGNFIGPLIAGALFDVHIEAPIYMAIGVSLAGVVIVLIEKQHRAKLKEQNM
method-description: Inhibition of NorA in Staphylococcus aureus 1199B assessed as reduction in ethidium bromide efflux at 50 uM by fluorimetry after 5 mins
A collection of compounds and their measured inhibition
Numbers only here, please. The scale is %.

Known inhibition results, listed for orientation:
Fc1ccc(C2=Nc3ccccc3SC2)cc1
0
Cc1ccc(S(=O)(=O)Nc2ccc3c(c2)ncn3-c2ccccc2)cc1
0
OCCN1CCN(CC/C=C2/c3ccccc3Sc3ccc(C(F)(F)F)cc32)CC1
82
Cc1c(NS(=O)(=O)c2ccc(F)cc2)c(=O)n(-c2ccccc2)n1C
3.2
CCCOc1ccc(-c2cc(O)c3ccccc3n2)cc1
0

query: Quote inhibition with test system Quinolone resistance protein NorA (Staphylococcus aureus) for CCCOc1ccc(-c2cc(=O)c3ccccc3n2C)cc1
result: 3.9

query: Tell me inhibition of CCCOc1ccc(-c2cc(=O)c3ccccc3n2CCN(CC)CC)cc1 when tested on Quinolone resistance protein NorA (Staphylococcus aureus).
result: 57.3

query: Provide inhibition, recorded with Quinolone resistance protein NorA (Staphylococcus aureus), of COc1ccc(/C=C/C(=O)NCCc2c[nH]c3ccccc23)cc1OC
result: 84

query: Report value: inhibition, system: Quinolone resistance protein NorA (Staphylococcus aureus), compound: Cc1ccc(S(=O)(=O)Nc2ccc3[nH]c(-c4cccn4C)nc3c2)cc1
result: 88.2

query: Retrieve inhibition on Quinolone resistance protein NorA (Staphylococcus aureus); query Cn1cccc1-c1nc2cc(NC(=O)c3ccccc3)ccc2[nH]1
result: 94.3

query: For Quinolone resistance protein NorA (Staphylococcus aureus), give inhibition of the listed compound: CCOC(=O)c1cn(C2CC2)c2cc(N3CCC4=C(C3)C(O)CCS4)c(N)cc2c1=O (stereo not drawn)
result: 26.3
